# Target Of Assay: NACHT, LRR and PYD domains-containing protein 3 (Homo sapiens, UniProt Q96P20)
# Sequence (Q96P20 whole entry, the tested form may be a part): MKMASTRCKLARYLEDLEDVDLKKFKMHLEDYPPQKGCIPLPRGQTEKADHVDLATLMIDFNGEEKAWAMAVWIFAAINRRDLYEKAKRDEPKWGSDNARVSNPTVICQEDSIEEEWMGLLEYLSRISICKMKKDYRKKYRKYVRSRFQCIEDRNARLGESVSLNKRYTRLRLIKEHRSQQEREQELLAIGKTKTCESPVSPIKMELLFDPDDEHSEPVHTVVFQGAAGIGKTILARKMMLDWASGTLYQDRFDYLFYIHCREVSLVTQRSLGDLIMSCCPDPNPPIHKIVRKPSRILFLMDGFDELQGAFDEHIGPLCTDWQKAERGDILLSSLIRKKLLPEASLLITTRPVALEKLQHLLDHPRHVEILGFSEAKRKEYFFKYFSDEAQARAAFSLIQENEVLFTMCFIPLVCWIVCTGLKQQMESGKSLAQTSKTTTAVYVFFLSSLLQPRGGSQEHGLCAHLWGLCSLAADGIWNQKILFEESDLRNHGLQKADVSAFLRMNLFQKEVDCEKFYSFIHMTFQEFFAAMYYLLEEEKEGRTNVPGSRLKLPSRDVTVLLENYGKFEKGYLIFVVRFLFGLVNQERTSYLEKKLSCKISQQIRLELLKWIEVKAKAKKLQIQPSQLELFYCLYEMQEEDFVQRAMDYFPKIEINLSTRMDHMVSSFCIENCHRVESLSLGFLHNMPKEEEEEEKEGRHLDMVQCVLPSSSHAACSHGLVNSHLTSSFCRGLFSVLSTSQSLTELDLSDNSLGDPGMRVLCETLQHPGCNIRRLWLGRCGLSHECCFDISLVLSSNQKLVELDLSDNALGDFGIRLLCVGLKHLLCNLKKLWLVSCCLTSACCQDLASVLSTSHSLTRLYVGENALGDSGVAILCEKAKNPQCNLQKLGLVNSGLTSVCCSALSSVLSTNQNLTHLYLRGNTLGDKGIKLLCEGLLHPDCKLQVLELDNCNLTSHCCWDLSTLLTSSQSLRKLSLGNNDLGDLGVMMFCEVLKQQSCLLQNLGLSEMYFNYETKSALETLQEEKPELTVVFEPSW
# Assay: Inhibition of NLRP3 inflammasome in human primary glial cells assessed as reduction in LPS-induced IL-1beta release
Metric: IC50 (nM)

Answered cases to consult:
>>> numeric_result("CC1=C2CC[C@@](C)(O)[C@@H]2[C@H]2OC(=O)[C@@H](CN(C)CCOc3no[n+]([O-])c3S(=O)(=O)c3ccccc3)[C@@H]2CC1")
1700
>>> numeric_result("CC1=C2CC[C@@](C)(O)[C@@H]2[C@H]2OC(=O)[C@@H](CN(C)CCCOc3no[n+]([O-])c3S(=O)(=O)c3ccccc3)[C@@H]2CC1")
2300
>>> numeric_result("C=C1C(=O)O[C@@H]2[C@H]3O[C@@]3(C)CC/C=C(\\C)CC[C@@H]12")
1800
>>> numeric_result("O=S(=O)(c1ccccc1)c1no[n+]([O-])c1S(=O)(=O)c1ccccc1")
1900

P: C/C1=C\CC[C@]2(C)O[C@@H]2[C@H]2OC(=O)[C@@H](CN(C)CCCOc3no[n+]([O-])c3S(=O)(=O)c3ccccc3)[C@@H]2CC1
Q: C/C1=C\CC[C@]2(C)O[C@@H]2[C@H]2OC(=O)[C@@H](CN(C)CCOc3no[n+]([O-])c3S(=O)(=O)c3ccccc3)[C@@H]2CC1
R: C=C1C(=O)O[C@H]2[C@H]1CCC(C)=C1CC[C@@](C)(O)[C@@H]12 [MICHELIOLIDE]
Order the entries by their reported IC50, beginning at the minimum. Answer format: the labels, ordered as requested.
Q, P, R
